- Test system: 616215-338-R-J1-PDC complex spheroid viability
- test: Anticancer human tumor 616215-338-R-J1-PDC patient-derived colon adenocarcinoma cell line growth inhibition [RAS]; active = viability on the fitted dose curve at most 10% of control; inactive = the rest
- run_parameters: second compound 10 µM; first compound 3.16 µM
- From the text: RAS pathway inhibitors in Combinations in Complex Spheroids A high-throughput screen of multi-cell type tumor spheroids was designed to identify active combinations of RAS pathway inhibitors and targeted small molecules. Complex spheroids include a stromal component modeled by human endothelial cells (HUVEC) and fibroblasts modeled by human mesenchymal stem cells (MSCs). […] Compounds. […] If the clinical Cmax for an agent had not been determined, the highest concentration tested was 10 microM. […]
Possible outcomes: active, inactive

compound	measurement_target	label_value
CC(Nc1ccc2c(c1)OCCn1cc(N3C(=O)OCC3C(F)F)nc1-2)C(N)=O (stereo not drawn) + C#Cc1c(F)ccc2cc(O)cc(-c3ncc4c(N5CC6CCC(C5)N6)nc(OCC56CCCN5CC(F)C6)nc4c3F)c12	616215-338-R-J1-PDC complex spheroid viability	inactive
CC(=O)OC12COC1CC(O)C1(C)C(=O)C(O)C3=C(C)C(OC(=O)C(O)C(NC(=O)OC(C)(C)C)c4ccccc4)CC(O)(C(OC(=O)c4ccccc4)C21)C3(C)C (stereo not drawn) + C#Cc1c(F)ccc2cc(O)cc(-c3ncc4c(N5CC6CCC(C5)N6)nc(OCC56CCCN5CC(F)C6)nc4c3F)c12	616215-338-R-J1-PDC complex spheroid viability	inactive
CC(C)NCC(C(=O)N1CCN(c2ncnc3c2C(C)CC3O)CC1)c1ccc(Cl)cc1 (stereo not drawn) + C#Cc1c(F)ccc2cc(O)cc(-c3ncc4c(N5CC6CCC(C5)N6)nc(OCC56CCCN5CC(F)C6)nc4c3F)c12	616215-338-R-J1-PDC complex spheroid viability	inactive
C[C@@H](NC(=O)c1ncnc(N)c1Cl)c1ncc(C(=O)Nc2cc(C(F)(F)F)c(Cl)cn2)s1 + C#Cc1c(F)ccc2cc(O)cc(-c3ncc4c(N5CC6CCC(C5)N6)nc(OCC56CCCN5CC(F)C6)nc4c3F)c12	616215-338-R-J1-PDC complex spheroid viability	inactive
Cc1nc(N2CCC3(CC2)COC(C)C3N)c(CO)nc1Sc1ccnc(N)c1Cl (stereo not drawn) + C#Cc1c(F)ccc2cc(O)cc(-c3ncc4c(N5CC6CCC(C5)N6)nc(OCC56CCCN5CC(F)C6)nc4c3F)c12	616215-338-R-J1-PDC complex spheroid viability	inactive
CCC(CC)c1cc(NC2CCC(N)C2)n2nccc2n1 (stereo not drawn) + C#Cc1c(F)ccc2cc(O)cc(-c3ncc4c(N5CC6CCC(C5)N6)nc(OCC56CCCN5CC(F)C6)nc4c3F)c12	616215-338-R-J1-PDC complex spheroid viability	active
NC1c2ccccc2OC12CCN(c1cnc3c(N4CCCc5ncccc54)n[nH]c3n1)CC2 (stereo not drawn) + C#Cc1c(F)ccc2cc(O)cc(-c3ncc4c(N5CC6CCC(C5)N6)nc(OCC56CCCN5CC(F)C6)nc4c3F)c12	616215-338-R-J1-PDC complex spheroid viability	inactive
CC1(O)CCCC1n1c(=O)c(C(F)F)cc2cnc(NC3CCN(S(C)(=O)=O)CC3)nc21 (stereo not drawn) + C#Cc1c(F)ccc2cc(O)cc(-c3ncc4c(N5CC6CCC(C5)N6)nc(OCC56CCCN5CC(F)C6)nc4c3F)c12	616215-338-R-J1-PDC complex spheroid viability	inactive

* * *

- Test system: 616215-338-R-J1-PDC complex spheroid viability
- test: Anticancer human tumor 616215-338-R-J1-PDC cell line growth inhibition [RAS]; active = viability on the fitted dose curve at most 10% of control; inactive = the rest;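 note: spheroids exposed to agents for seven days before viability readout; 100% = DMSO vehicle control viability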
- run_parameters: second compound 0.316 µM; first compound 1 µM
Possible outcomes: 1 = active, 0 = inactive

molecule	label_value
C=CC(=O)N1CCN(c2nc(OCC3CCCN3C)nc3c(F)c(-c4nc(N)cc(C)c4C(F)(F)F)c(Cl)cc23)C(C)C1 (centres undefined) + C#Cc1c(F)ccc2cc(O)cc(-c3ncc4c(N5CC6CCC(C5)N6)nc(OCC56CCCN5CC(F)C6)nc4c3F)c12	0
CC1(O)CCCC1n1c(=O)c(C(F)F)cc2cnc(NC3CCN(S(C)(=O)=O)CC3)nc21 (centres undefined) + C=CC(=O)N1CCN(c2nc(OCC3CCCN3C)nc3c(F)c(-c4nc(N)cc(C)c4C(F)(F)F)c(Cl)cc23)C(C)C1	0
CC(Nc1ccc2c(c1)OCCn1cc(N3C(=O)OCC3C(F)F)nc1-2)C(N)=O (centres undefined) + C#Cc1c(F)ccc2cc(O)cc(-c3ncc4c(N5CC6CCC(C5)N6)nc(OCC56CCCN5CC(F)C6)nc4c3F)c12	0
Nc1ccn(C2OC(CO)C(O)C2(F)F)c(=O)n1 (centres undefined) + C#Cc1c(F)ccc2cc(O)cc(-c3ncc4c(N5CC6CCC(C5)N6)nc(OCC56CCCN5CC(F)C6)nc4c3F)c12	0
C[C@@H](NC(=O)c1ncnc(N)c1Cl)c1ncc(C(=O)Nc2cc(C(F)(F)F)c(Cl)cn2)s1 + C#Cc1c(F)ccc2cc(O)cc(-c3ncc4c(N5CC6CCC(C5)N6)nc(OCC56CCCN5CC(F)C6)nc4c3F)c12	0
NC1c2ccccc2OC12CCN(c1cnc3c(N4CCCc5ncccc54)n[nH]c3n1)CC2 (centres undefined) + C=CC(=O)N1CCN(c2nc(OCC3CCCN3C)nc3c(F)c(-c4nc(N)cc(C)c4C(F)(F)F)c(Cl)cc23)C(C)C1	0
CCN1CCN(Cc2ccc(Nc3ncc(F)c(-c4cc(F)c5nc(C)n(C(C)C)c5c4)n3)nc2)CC1 + C#Cc1c(F)ccc2cc(O)cc(-c3ncc4c(N5CC6CCC(C5)N6)nc(OCC56CCCN5CC(F)C6)nc4c3F)c12	0
C=CC(=O)Nc1cc(Nc2nccc(-c3cn(C)c4ccccc34)n2)c(OC)cc1N(C)CCN(C)C + C=CC(=O)N1CCN(c2nc(OCC3CCCN3C)nc3c(F)c(-c4nc(N)cc(C)c4C(F)(F)F)c(Cl)cc23)C(C)C1	0
CCC(CC)c1cc(NC2CCC(N)C2)n2nccc2n1 (centres undefined) + C=CC(=O)N1CCN(c2nc(OCC3CCCN3C)nc3c(F)c(-c4nc(N)cc(C)c4C(F)(F)F)c(Cl)cc23)C(C)C1	0
C=CC(=O)Nc1cc(Nc2nccc(-c3cn(C)c4ccccc34)n2)c(OC)cc1N(C)CCN(C)C + C#Cc1c(F)ccc2cc(O)cc(-c3ncc4c(N5CC6CCC(C5)N6)nc(OCC56CCCN5CC(F)C6)nc4c3F)c12	0
CCN1CCN(Cc2ccc(Nc3ncc(F)c(-c4cc(F)c5nc(C)n(C(C)C)c5c4)n3)nc2)CC1 + C=CC(=O)N1CCN(c2nc(OCC3CCCN3C)nc3c(F)c(-c4nc(N)cc(C)c4C(F)(F)F)c(Cl)cc23)C(C)C1	0
Cc1nc(N2CCC3(CC2)COC(C)C3N)c(CO)nc1Sc1ccnc(N)c1Cl (centres undefined) + C#Cc1c(F)ccc2cc(O)cc(-c3ncc4c(N5CC6CCC(C5)N6)nc(OCC56CCCN5CC(F)C6)nc4c3F)c12	0
O=C(c1ccc(F)c(F)c1Nc1ccc(I)cc1F)N1CC(O)([C@@H]2CCCCN2)C1 + C=CC(=O)N1CCN(c2nc(OCC3CCCN3C)nc3c(F)c(-c4nc(N)cc(C)c4C(F)(F)F)c(Cl)cc23)C(C)C1	1
CC(Nc1ccc2c(c1)OCCn1cc(N3C(=O)OCC3C(F)F)nc1-2)C(N)=O (centres undefined) + C=CC(=O)N1CCN(c2nc(OCC3CCCN3C)nc3c(F)c(-c4nc(N)cc(C)c4C(F)(F)F)c(Cl)cc23)C(C)C1	0
CC1(O)CCCC1n1c(=O)c(C(F)F)cc2cnc(NC3CCN(S(C)(=O)=O)CC3)nc21 (centres undefined) + C#Cc1c(F)ccc2cc(O)cc(-c3ncc4c(N5CC6CCC(C5)N6)nc(OCC56CCCN5CC(F)C6)nc4c3F)c12	0
CC(=O)OC12COC1CC(O)C1(C)C(=O)C(O)C3=C(C)C(OC(=O)C(O)C(NC(=O)OC(C)(C)C)c4ccccc4)CC(O)(C(OC(=O)c4ccccc4)C21)C3(C)C (centres undefined) + C#Cc1c(F)ccc2cc(O)cc(-c3ncc4c(N5CC6CCC(C5)N6)nc(OCC56CCCN5CC(F)C6)nc4c3F)c12	0
CC(C)NCC(C(=O)N1CCN(c2ncnc3c2C(C)CC3O)CC1)c1ccc(Cl)cc1 (centres undefined) + C#Cc1c(F)ccc2cc(O)cc(-c3ncc4c(N5CC6CCC(C5)N6)nc(OCC56CCCN5CC(F)C6)nc4c3F)c12	0
CC(=O)OC12COC1CC(O)C1(C)C(=O)C(O)C3=C(C)C(OC(=O)C(O)C(NC(=O)OC(C)(C)C)c4ccccc4)CC(O)(C(OC(=O)c4ccccc4)C21)C3(C)C (centres undefined) + C=CC(=O)N1CCN(c2nc(OCC3CCCN3C)nc3c(F)c(-c4nc(N)cc(C)c4C(F)(F)F)c(Cl)cc23)C(C)C1	0
Cc1nc(N2CCC3(CC2)COC(C)C3N)c(CO)nc1Sc1ccnc(N)c1Cl (centres undefined) + C=CC(=O)N1CCN(c2nc(OCC3CCCN3C)nc3c(F)c(-c4nc(N)cc(C)c4C(F)(F)F)c(Cl)cc23)C(C)C1	0
